system: DeltatarO mutant; assay: S. aureus survival, RN4220 and DeltatarO strains – OD600, teichoic acid synthesis inhibitors, primary screen (AID 463173); conditions: S. aureus RN4220 wild type/DeltatarO growth, OD600, 18 h, screened at 18.75 µg/mL (by protocol)
Screen size: about 52,000 compounds; about 4,300 (8.3%) were called active. Cut-off read from the data, not from the text of the source: active = survival mostly below about 52% (no sharp cut-off); inactive = mostly above about 56%. Only a selection was taken, and actives are over-represented in it overall.
// classify into active, inactive

Hi team, can someone confirm the assay call for Cc1cc(C)cc(NC(=O)CCc2c(C)nc3c(c2C)c(=O)n(C)c(=O)n3C)c1 ? inactive

Another compound: CCc1ccccc1N1CC(c2nc3ccccc3n2CCCOc2ccc(Cl)cc2)CC1=O (centres undefined) active

Another compound: CCc1ccc(OCC(=O)NCc2nc(-c3cccc(C)c3)no2)c(Br)c1 inactive

Another compound: Cc1cccc(OCCCCn2c(C3CC(=O)N(c4ccccc4Cl)C3)nc3ccccc32)c1 (centres undefined) active

Another compound: COc1ccc(CCNC(=O)c2ccc3nc(CCc4ccccc4)oc3c2)cc1OC active

Another compound: COc1ccccc1OCc1nc(-c2cccc(C)c2)no1 active

Another compound: CN(C)c1ccc(CNC(=O)c2ccc3nc(CCc4ccccc4)oc3c2)cc1 inactive

Another compound: COc1ccc(NC(=O)CC2NCCNC2=O)c(OC)c1 (centres undefined) inactive

Another compound: CCCCC(=O)N1CCN(c2nc3c(C)c(C)ccc3s2)CC1 active

Another compound: Clc1cccc(CNc2ncnc3c2nc2n3CCCC2)c1 inactive

Another compound: Cc1cc(C)cc(OCCn2c(C3CC(=O)N(c4ccccc4Cl)C3)nc3ccccc32)c1 (centres undefined) inactive

Another compound: Cc1ccc2nc(Cl)c3cc(C(=O)NC4CCCCCC4)sc3c2c1 inactive

Another compound: COc1ccc(-c2noc(CNS(=O)(=O)c3ccc(Br)cc3)n2)cc1OC inactive

Another compound: COc1ccc(N2CCN(c3ccc(-c4nc(-c5cccc(C)c5)no4)cc3[N+](=O)[O-])CC2)cc1 inactive

Another compound: COc1ccc(CCNC(=O)c2ccc3nc(Cc4ccccc4)oc3c2)cc1OC inactive

Another compound: Fc1ccc(N2CCN(c3nc4ccccc4c4nc(-c5cccnc5)nn34)CC2)cc1 inactive

Another compound: O=C(NCc1ccccc1)c1ccc2nc(CCc3ccccc3)oc2c1 active

Another compound: CCCn1cc(S(=O)(=O)c2cccc(Cl)c2)c(=O)c2cc(F)c(N3CCOCC3)cc21 inactive

Another compound: Cc1ccc(OCC(=O)Nc2nc(-c3ccc(Br)cc3)ns2)cc1 inactive
